Each record here notes measured α-rat koff.
Target: T1, rat α-CGRP (Rattus norvegicus, UniProt P01256)
T1 construct: rat α (1-37); purchased GenScript Corporation or Global Peptide Services
T1 sequence (P01256 83-119 limits assumed): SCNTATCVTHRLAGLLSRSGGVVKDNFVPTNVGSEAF
Test: Biacore SPR affinity of Fab fragments to N-biotinylated rat α-CGRP on SA chip
Type: binding
Settings: 37° C., screening mode except underlined values
Unit s⁻¹ implied. Number only.

>  <MOLECULE>
M82: G1 variant; L1 R28N T30V; L2 A51H L56T; H2 A57N; HC-FW3 L99T A100V (antibody, V domains shown) VH: EVQLVESGGGLVQPGGSLRLSCAASGFTFSNYWISWVRQAPGKGLEWVAEIRSESDNSATHYAEAVKGRFTISRDNAKNSLYLQMNSLRAEDTAVYYCTVYFDYGLAIQNYWGQGTLVTVSS VL: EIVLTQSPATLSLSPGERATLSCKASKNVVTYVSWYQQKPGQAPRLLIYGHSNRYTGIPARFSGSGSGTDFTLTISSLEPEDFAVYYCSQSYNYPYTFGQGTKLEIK

>  <α-rat koff [s⁻¹]>
0.00699

$$$$

Turning now to a further molecule:
Using the record for M63: G1 variant; L1 R28N T30G; L2 G50A; H2 E54K A57N S58T; HC-FW3 L99T A100V (antibody, V domains shown) VH: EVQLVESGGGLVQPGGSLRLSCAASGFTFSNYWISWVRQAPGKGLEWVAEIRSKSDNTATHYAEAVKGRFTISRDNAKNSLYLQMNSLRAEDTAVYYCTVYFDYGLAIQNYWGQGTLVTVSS VL: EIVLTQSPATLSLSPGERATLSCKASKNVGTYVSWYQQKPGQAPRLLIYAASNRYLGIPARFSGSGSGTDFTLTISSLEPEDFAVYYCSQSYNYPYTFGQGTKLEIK , report its α-rat koff.
0.00265
